# maps each entry to its Aniline hydroxylase, Amount
System: aniline hydroxylase
Assay: Aniline hydroxylase activity in combination with INAH (Experimental Example 2(2))
Type: in vivo, Sprague-Dawley rat
Conditions: INAH 200 mg/kg i.p., alone or plus compound 200 mg/kg
Only the number, expressed in nmol/min/mg protein, is required.

Some compounds with known Aniline hydroxylase, Amount results, for comparison:
>  <compound>
CC=CCSc1cnccn1 [Example 7, 2-(2-butenylthio)pyrazine]

>  <unit-abbrev>
nmol/min/mg protein

>  <Aniline hydroxylase, Amount>
0.712

$$$$
>  <compound>
C=C(C)CCSc1cnccn1 [Example 6, 2-(3-methyl-3-butenylthio)pyrazine]

>  <unit-abbrev>
nmol/min/mg protein

>  <Aniline hydroxylase, Amount>
0.879

$$$$
>  <compound>
c1coc(CSc2cnccn2)c1 [Example 5, 2-(furfurylthio)pyrazine]

>  <unit-abbrev>
nmol/min/mg protein

>  <Aniline hydroxylase, Amount>
0.972

$$$$
>  <compound>
C=CC(C)Sc1cnccn1 (centres unmarked) [Example 8]

>  <unit-abbrev>
nmol/min/mg protein

>  <Aniline hydroxylase, Amount>
0.659

$$$$
>  <compound>
c1ccc(CSc2cnccn2)cc1 [Example 2, 2-(benzylthio)pyrazine]

>  <unit-abbrev>
nmol/min/mg protein

>  <Aniline hydroxylase, Amount>
1.070

$$$$
>  <compound>
CC(C)=CCSc1cnccn1 [Example 3, 2-(3-methyl-2-butenylthio)pyrazine]

>  <unit-abbrev>
nmol/min/mg protein

>  <Aniline hydroxylase, Amount>
1.108

$$$$
>  <compound>
C(=Cc1ccccc1)CSc1cnccn1 [Example 4, 2-(cinnamylthio)pyrazine]

>  <unit-abbrev>
nmol/min/mg protein

>  <Aniline hydroxylase, Amount>
0.972

$$$$

# input compound: NNC(=O)c1ccncc1 [INAH, isoniazid, reference compound] ; wanted: its Aniline hydroxylase, Amount 1.453
